Source: ChEMBL document CHEMBL5058577

test system: HEK-293T; assay: Multiplex assay against HEK293T; format: toxicity, cell-based; conditions: human, 48 h, 1 µM, compound concentration 1 uM, replicate 1
For each of the molecules below, state its Population Pyknosed Nuclei (%).
Your answer is read as %, so omit the unit and give the number.

Lookup result for COc1cc2nc(N3CCN(C(=O)c4ccco4)CC3)nc(N)c2cc1OC.Cl [PRAZOSIN HYDROCHLORIDE] ; measured Population Pyknosed Nuclei (%): 5

Measured Population Pyknosed Nuclei (%) of "COC(c1ccccc1)(c1ccccc1)[C@H](Oc1nc(C)cc(C)n1)C(=O)O" : 10

// Population Pyknosed Nuclei (%) value for "O=c1nc2[nH]c3ccccc3nc-2c(=O)[nH]1" : 8

Lab note: "COc1cc2nc(N3CCN(C(=O)COc4c(OC)cccc4C(C)C)CC3)nc(N)c2cc1OC.Cl.Cl" gave Population Pyknosed Nuclei (%) of 6

Entry "CSc1nc(NC2CCCC2)c([N+](=O)[O-])c(NC2CCCC2)n1" — recorded Population Pyknosed Nuclei (%) = 9

Query O=C(O)CCC/C=C\CC1C(O)CC(O)C1/C=C/C(O)COc1cccc(Cl)c1 (centres undefined) yields Population Pyknosed Nuclei (%) of 6

Record "CC(C)(O)C(=O)N1CCN(c2ccc(C(F)(F)F)c(C3=C(c4c[nH]c5ccccc45)C(=O)NC3=O)c2)CC1" . Reported Population Pyknosed Nuclei (%): 10

For "COc1cc(Nc2ncc3c(n2)-c2ccc(Cl)cc2C(c2c(F)cccc2OC)=NC3)ccc1C(=O)O" the molecule record lists Population Pyknosed Nuclei (%) as 5

Population Pyknosed Nuclei (%) reported for this molecule "CN1CCN(c2ccc(Nc3c4ccccc4nc4ccccc34)cc2)CC1.Cl.Cl.O" : 6

Record "Cc1cc(O)c(-c2ccc([C@@H](C)CN(C)C)cc2)c2c1[nH]c(=O)c1sccc12" . Reported Population Pyknosed Nuclei (%): 20

Measured Population Pyknosed Nuclei (%) of "C[C@@H]1CC(=O)Nc2cccc(-c3ccc4c(c3)c(-c3cnn(C)c3)nn4C)c2N1" : 7

Population Pyknosed Nuclei (%) reported for this molecule COCCCN1CCC(NC(=O)c2cc(Cl)c(N)c3c2OCC3)CC1 [PRUCALOPRIDE] : 7

Sure, the documented Population Pyknosed Nuclei (%) for "CCCCCCNC(=O)Nc1ccc(S(=O)(=O)Nc2ccc(CCNC[C@H](O)COc3ccc(O)cc3)cc2)cc1" is 6

Looking up "CN(C)C(=O)Cn1cc(-c2ccc(-c3nnc4ccccn34)cc2)cn1" , I found its Population Pyknosed Nuclei (%) recorded as 6

Lab note: measured Population Pyknosed Nuclei (%) of Cc1ccc(OCC(O)C(C)NC(C)C)c2c1CCC2.Cl (centres undefined) was 8

For reference, reported Population Pyknosed Nuclei (%) for "COCCn1c(C)c(C)s/c1=N\C(=O)C1C(C)(C)C1(C)C" stands at 11

Record summary for "Cc1cc(NC(=O)NCCN2CCC(O)(Cc3ccccc3)CC2)c2ccccc2n1" : reported Population Pyknosed Nuclei (%) = 5

The value of Population Pyknosed Nuclei (%) measured for the molecule CCn1c(-c2nc3cc(C(=O)N4CCCC(N)C4)ccc3n2C)cc2ccccc21.Cl (centres undefined) turned out to be 8

Measured Population Pyknosed Nuclei (%) of "C=CCN1C[C@H](C(=O)N(CCCN(C)C)C(=O)NCC)C[C@@H]2c3cccc4[nH]cc(c34)C[C@H]21" : 7
